These data points were gathered from patent US20050059726A1.

# ASSAY TARGET: UniProt P00742
# Sequence (P00742 235-488 limits assumed): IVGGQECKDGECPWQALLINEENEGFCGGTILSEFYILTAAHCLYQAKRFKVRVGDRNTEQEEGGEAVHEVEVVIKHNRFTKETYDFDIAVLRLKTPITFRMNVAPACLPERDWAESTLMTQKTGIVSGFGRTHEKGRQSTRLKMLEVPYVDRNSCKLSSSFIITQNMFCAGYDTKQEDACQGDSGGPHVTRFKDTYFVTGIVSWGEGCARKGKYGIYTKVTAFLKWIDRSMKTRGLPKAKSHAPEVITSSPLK
# Sequence (P00742 41-179 partner limits assumed): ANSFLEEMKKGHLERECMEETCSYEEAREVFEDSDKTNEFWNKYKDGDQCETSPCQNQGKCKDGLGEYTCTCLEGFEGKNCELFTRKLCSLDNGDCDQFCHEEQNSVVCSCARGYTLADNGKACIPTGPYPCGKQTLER
# MEASUREMENT NOTES: In vitro assay for inhibition of Factor Xa (2), fluorogenic assay
# Format: biochemical
# SETUP CONDITIONS: substrate Rhodamine 110, bis-(CBZ-glycylglycyl-L-arginine amide 10 μM), Ki calculated from IC50
pKi: −log10 of the molar value.
Answer each item with its documented pKi.

// worked examples, pKi included
- CS(=O)(=O)c1ccccc1-c1ccc(N2CC[C@H](NS(=O)(=O)c3cc4nc(Cl)ccc4s3)C2=O)c(F)c1: > 8.00
- O=C1[C@@H](NS(=O)(=O)/C=C/c2ccc(Cl)s2)CCN1c1ccc([N+](=O)[O-])cc1F: > 7.70

// each compound listed below needs its pKi
1. O=C1[C@@H](NS(=O)(=O)c2ccc3cc(Cl)ccc3c2)CCN1c1ccccc1F
2. O=C1[C@@H](NS(=O)(=O)c2ccc(-c3ccc(Cl)s3)s2)CCN1c1ccc([N+](=O)[O-])cc1F
3. O=Cc1ccsc1-c1ccc(N2CC[C@H](NS(=O)(=O)c3ccc4cc(Cl)ccc4c3)C2=O)c(F)c1
4. CN(c1ccccc1-c1ccc(N2CC[C@H](NS(=O)(=O)/C=C/c3ccc(Cl)s3)C2=O)nc1)S(C)(=O)=O
5. CS(=O)(=O)c1ccccc1-c1ccc(N2CC[C@H](NS(=O)(=O)c3cc4cc(Cl)ccc4s3)C2=O)c(F)c1

Ans.
1: > 6.00; 2: > 7.70; 3: > 7.70; 4: > 8.00; 5: > 8.00
